# Test system: Fibroblast
# Assay Comment: Multiplex assay against human fibroblast
# Assay type: toxicity, cell-based
# Details: 24 h, 1 µM, compound concentration 1 uM, replicate 2
Observation Type: Population Normal (%)
Kindly provide the numeric value in % only, without the unit symbol.

Compound	Observed Result
O=C(O)c1cc2ccccc2c(Cc2c(O)c(C(=O)O)cc3ccccc23)c1O [PAMOIC ACID]	93

query: I'd like to know its Population Normal (%). The compound in question is CCNC1(C(N)=O)CCN(c2ncnc3c2nc(-c2ccccc2Cl)n3-c2ccc(Cl)cc2)CC1 [OTENABANT]
result: 94

* * *

# Test system: U2OS
# Assay Comment: Multiplex assay against U2OS
# Type: toxicity, cell-based
# Details: human, 12 h, 1 µM, compound concentration 1 uM, replicate 2
Observation Type: Total Cell Count
A bare number is all that is needed in reply.

Some molecules with recorded Total Cell Count:
Chemical Structure	System	Observation Type	Observed Result
Cc1ccc(F)cc1C(=O)Nc1ccc(C(=O)N2Cc3cccn3Cc3ccccc32)c(Cl)c1	U2OS	Total Cell Count	150
C[C@H](NC(=O)c1c(C(F)F)nn(C)c1Oc1cccc(C(F)(F)F)c1)c1ccc(C(=O)O)cc1	U2OS	Total Cell Count	132
Cc1ccc(/C(=C\CN2CCCC2)c2ccccn2)cc1	U2OS	Total Cell Count	126
CC[C@H]1OC(=O)[C@H](C)[C@@H](O[C@H]2C[C@@](C)(OC)[C@@H](O)[C@H](C)O2)[C@H](C)[C@@H](O[C@@H]2O[C@H](C)C[C@H](N(C)C)[C@H]2O)[C@@]2(C)CC(C)=C(O2)[C@H](C)[C@@H](O)[C@]1(C)O	U2OS	Total Cell Count	91
CSCC[C@H](NC=O)C(=O)N[C@@H](CC(C)C)C(=O)N[C@@H](Cc1ccccc1)C(=O)O	U2OS	Total Cell Count	135
COc1cc(NC(=O)CCN2CCC(OC(=O)Nc3ccccc3-c3ccccc3)CC2)c(Cl)cc1CNC[C@H](O)c1ccc(O)c2[nH]c(=O)ccc12	U2OS	Total Cell Count	98

Next item in the queue.
query: Request: Total Cell Count, test system U2OS, entry "CN(C)CCCc1cc(C(=O)Nc2ccc(-c3ccncc3)cc2)ccc1O.Cl.Cl"
result: 124

* * *

# Test system: Fibroblast
# Assay Comment: Multiplex assay against human fibroblast
# Assay type: toxicity, cell-based
# Details: 12 h, 10 µM, compound concentration 10 uM, replicate 1
Observation Type: Population Pyknosed Nuclei (%)
Supply the numeric figure in %, leaving out any unit text.

Recorded Population Pyknosed Nuclei (%), per entry:
>>> df
                                   compound                observation_type  units_of_measure  observed_result
0  C[C@@H]1C[C@H]2[C@@H]3CCC4=CC(=O)C=C[C@]4(C)[C@@]3(F)[C@@H](O)C[C@]2(C)[C@@]1(O)C(=O)CO  Population Pyknosed Nuclei (%)                 %               13
1  Cc1ccc(F)cc1C(=O)Nc1ccc(C(=O)N2Cc3cccn3Cc3ccccc32)c(Cl)c1  Population Pyknosed Nuclei (%)                 %               23
2  O=S(=O)(c1ccccc1)c1cnc2c(N3CCNCC3)cccc2c1 [INTEPIRDINE]  Population Pyknosed Nuclei (%)                 %               14
3  C[C@H]1[C@H]2CC[C@H]3[C@@H]4CC=C5C[C@@H](N(C)C)CC[C@]5(C)[C@H]4CC[C@]23CN1C  Population Pyknosed Nuclei (%)                 %               13
4  Cl.Clc1ccc2nsnc2c1NC1=NCCN1 [TIZANIDINE HYDROCHLORIDE]  Population Pyknosed Nuclei (%)                 %               20
5  CCCN1CCC[C@@H]2Cc3n[nH]cc3C[C@H]21.Cl [QUINPIROLE HYDROCHLORIDE]  Population Pyknosed Nuclei (%)                 %               15
6  Cc1nc2ccc(Oc3ccc(F)cc3)cc2c(=O)n1C[C@H]1CCCN(C(C)C)C1.Cl  Population Pyknosed Nuclei (%)                 %               19
7  CC1(COc2ccc3c(c2)ncn3-c2ccc3cccc(N4CCC(N)CC4)c3n2)COC1  Population Pyknosed Nuclei (%)                 %               30

query: # lookup: Population Pyknosed Nuclei (%) of "N#Cc1c(N)nc(SCc2csc(-c3ccc(Cl)cc3)n2)c(C#N)c1-c1ccc(OCCO)cc1"
result: 25

query: // returns reported Population Pyknosed Nuclei (%) for input "CN1CCN(c2nc3cc(C(F)(F)F)ccc3n3cccc23)CC1.O=C(O)/C=C\C(=O)O.O=C(O)/C=C\C(=O)O"
result: 10

query: What does the data say about its Population Pyknosed Nuclei (%)? Entry: CSc1ccccc1N1CCN(CCCCCC(=O)NC2CCCc3ccccc32)CC1.Cl (stereo not drawn)
result: 17

query: What measured Population Pyknosed Nuclei (%) goes with "CN(C)c1ccnc2sc3c(=O)n(N4CCCCCC4)cnc3c12" ?
result: 27

query: // Population Pyknosed Nuclei (%) lookup, key: "Oc1c(CN2CCN(c3ccccn3)CC2)cc(Cl)c2cccnc12"
result: 27

query: For the compound "CC(=O)NCCc1c(Cc2ccccc2)[nH]c2ccccc12" , what Population Pyknosed Nuclei (%) is on record?
result: 15

query: Can you share its Population Pyknosed Nuclei (%)? I mean this compound: CN1CCN2c3ncccc3Cc3ccccc3C2C1 (stereo not drawn)
result: 10

query: Endpoint output: Population Pyknosed Nuclei (%) of "c1cc(OCCCN2CCCCC2)ccc1CN1CCCCC1" . Value?
result: 9

query: Dear colleague, I am looking for the recorded Population Pyknosed Nuclei (%) of the following compound: Cc1ccccc1C(=O)Nc1ccc(C(=O)N2CCCC(N(C)C)c3ccccc32)cc1.Cl (stereo not drawn)
result: 22

query: Look at this compound and give its reported Population Pyknosed Nuclei (%). "CCOc1c2c(c(OCC)c3ncccc13)CN(c1ccc(CS(=O)(=O)NC(=O)Cc3ccccc3OC)cc1C)C2=O"
result: 21

Origin of measurements: ChEMBL document CHEMBL5058577
